# MEASUREMENT NOTES: Octanol-water partition coefficient, log D of the compound at pH 7.4 by shake flask method
# Type: physicochemical
OBSERVABLE: logD

Examples from the recorded data:
COc1cnc2c(C(=O)NCCO)cn(Cc3ncnc(N(C)C)c3C)c2c1 | 1.6
Cc1cnc2c(C(=O)NCCO)cn(Cc3ncnc(OC(F)F)c3C)c2c1 | 2
COc1cnc2c(C(=O)NCCF)cn(Cc3ncnc(N(C)C)c3C)c2c1 | 2.2
COc1cnc2c(C(=O)NCC(F)F)cn(Cc3ncnc(OC)c3C)c2c1 | 2.8
Cc1cnc2c(C(=O)NCC(F)F)cn(Cc3ncc(C)nc3C)c2c1 | 2.4

Recorded logD of Cc1cnc2c(C(=O)NCCF)cn(Cc3ncc(C)nc3C)c2c1 , please. 2.2

Please report the recorded logD for COc1ncnc(Cn2cc(C(=O)NCC(F)F)c3ncc(C)cc32)c1C . 2.9

###

# MEASUREMENT NOTES: Unbound fraction in human plasma
# Assay type: ADME, cell-free
OBSERVABLE: fraction unbound
Could you keep your reply to the number by itself?

Look up fraction unbound for this compound: COc1cnc2c(C(=O)NCCO)cn(Cc3ncnc(OC)c3C)c2c1 0.17

fraction unbound lookup needed for Cc1cnc2c(C(=O)NCCO)cn(Cc3ncnc(OC(F)F)c3C)c2c1 , thanks. 0.3

###

Items are presented alongside their recorded Cmax.
# MEASUREMENT NOTES: Cmax in BALB/c mouse at 100 mg/kg, po administered as single dose
# Assay type: ADME, organism-based
# Set-up: dose 100 mg/kg, route oral
# MEASUREMENT CONDITIONS: in vivo
Give the value, in units of µM, as a plain number.

Example entries and their recorded answers appear below.
COc1cnc2c(C(=O)NCCO)cn(Cc3ncnc(OC)c3C)c2c1 | 105
COc1cnc2c(C(=O)NCCO)cn(Cc3ncnc(N(C)C)c3C)c2c1 | 23

Endpoint output: Cmax of Cc1cnc2c(C(=O)NCCO)cn(Cc3ncnc(N(C)C)c3C)c2c1 . Value? 70

###

# MEASUREMENT NOTES: Half life in BALB/c mouse at 100 mg/kg, po administered as single dose
# Assay type: ADME, organism-based
# Set-up: dose 100 mg/kg, route oral
# MEASUREMENT CONDITIONS: in vivo
Below, each entry is listed alongside its reported half-life.
Give just the numeric value; h need not be written.

Cc1cnc2c(C(=O)NCCO)cn(Cc3ncnc(N(C)C)c3C)c2c1 | 0.9
COc1cnc2c(C(=O)NCCO)cn(Cc3ncnc(N(C)C)c3C)c2c1 | 2

Which measured half-life value corresponds to COc1cnc2c(C(=O)NCCO)cn(Cc3ncnc(OC)c3C)c2c1 ? 2

###

Overview of recorded IC50 for various molecules
# EXPERIMENTAL SYSTEM: Phosphodiesterase 6
# MEASUREMENT NOTES: Inhibition of PDE6 (unknown origin)
# Assay type: protein assay, Homo sapiens

COc1cnc2c(C(=O)NCCO)cn(Cc3ncnc(N(C)C)c3C)c2c1 | > 100 µM

I have this molecule here, Cc1cnc2c(C(=O)NCCO)cn(Cc3ncnc(N(C)C)c3C)c2c1 , and I need its recorded IC50. > 100 µM

IC50 lookup needed for Cc1cnc2c(C(=O)NCCF)cn(Cc3nccc(OCC(F)(F)F)c3C)c2c1 , thanks. > 100 µM

###

# MEASUREMENT NOTES: Octanol-water partition coefficient, log D of the compound at pH 7.4 by shake flask method
# Type: physicochemical
Measured logD, listed per entry.
API doc: respond with a numeric literal and nothing else, no unit.

Answered examples (3):
COc1ncnc(Cn2cc(C(=O)NCCF)c3ncc(Br)cc32)c1C | 2.4
COc1ncnc(Cn2cc(C(=O)NCCF)c3ncc(C4CC4)cc32)c1C | 3.1
COc1cnc2c(C(=O)NCCF)cn(Cc3ncnc(OC)c3C)c2c1 | 2.5

Lab note: next molecule to report on.
Suppose we examine the molecule COc1cnc2c(C(=O)NCC(F)F)cn(Cc3ncnc(N(C)C)c3C)c2c1 ; what logD value has been reported? 2.5

###

# MEASUREMENT NOTES: Unbound fraction in human plasma
# Format: ADME, cell-free
Known fraction unbound of a selection of compounds
// return just the number, without any unit appended

COc1cnc2c(C(=O)NCCO)cn(Cc3ncnc(N(C)C)c3C)c2c1 | 0.3
COc1ncnc(Cn2cc(C(=O)NCC(F)F)c3ncc(C)cc32)c1C | 0.05
COc1ncnc(Cn2cc(C(=O)NCCF)c3ncc(C)cc32)c1C | 0.07

Consider the record given below.
So what does the record say about fraction unbound for Cc1cnc2c(C(=O)NCCO)cn(Cc3ncnc(N(C)C)c3C)c2c1 ? 0.3

###

# EXPERIMENTAL SYSTEM: Phosphodiesterase 6
# MEASUREMENT NOTES: Inhibition of PDE6 (unknown origin)
# Type: protein assay, Homo sapiens
OBSERVABLE: IC50

# annotated cases, reported IC50 shown
COc1ncc(F)cc1Cn1cc(C(=O)NC[C@H](C)F)c2ncc(C)cc21 | > 100 µM
Cc1cnc2c(C(=O)NCCO)cn(Cc3ncnc(OC(F)F)c3C)c2c1 | > 100 µM

Given COc1ncnc(Cn2cc(C(=O)NCCF)c3ncc(C)cc32)c1C , state its recorded IC50. 1 µM

Field request: IC50 | item: COc1cnc2c(C(=O)NCCO)cn(Cc3ncnc(OC)c3C)c2c1 2 µM

Quick check: IC50 of COc1ncnc(Cn2cc(C(=O)NCC(F)F)c3ncc(C)cc32)c1C ? > 10 µM

Reported IC50, molecule Cc1c(Cn2cc(C(=O)NCCF)c3ncccc32)ncnc1N(C)C : ____ > 100 µM

Item under review: COc1ncnc(Cn2cc(C(=O)NCCF)c3ncccc32)c1C . Reported IC50? 9 µM

Origin of measurements: ChEMBL document CHEMBL3286390
